Listing of recorded inhibition by entry.
SUBJECT_OF_TEST: Aminopeptidase N (Plasmodium falciparum (isolate 3D7)) (UniProt O96935)
Sequence (O96935 whole entry, looked up): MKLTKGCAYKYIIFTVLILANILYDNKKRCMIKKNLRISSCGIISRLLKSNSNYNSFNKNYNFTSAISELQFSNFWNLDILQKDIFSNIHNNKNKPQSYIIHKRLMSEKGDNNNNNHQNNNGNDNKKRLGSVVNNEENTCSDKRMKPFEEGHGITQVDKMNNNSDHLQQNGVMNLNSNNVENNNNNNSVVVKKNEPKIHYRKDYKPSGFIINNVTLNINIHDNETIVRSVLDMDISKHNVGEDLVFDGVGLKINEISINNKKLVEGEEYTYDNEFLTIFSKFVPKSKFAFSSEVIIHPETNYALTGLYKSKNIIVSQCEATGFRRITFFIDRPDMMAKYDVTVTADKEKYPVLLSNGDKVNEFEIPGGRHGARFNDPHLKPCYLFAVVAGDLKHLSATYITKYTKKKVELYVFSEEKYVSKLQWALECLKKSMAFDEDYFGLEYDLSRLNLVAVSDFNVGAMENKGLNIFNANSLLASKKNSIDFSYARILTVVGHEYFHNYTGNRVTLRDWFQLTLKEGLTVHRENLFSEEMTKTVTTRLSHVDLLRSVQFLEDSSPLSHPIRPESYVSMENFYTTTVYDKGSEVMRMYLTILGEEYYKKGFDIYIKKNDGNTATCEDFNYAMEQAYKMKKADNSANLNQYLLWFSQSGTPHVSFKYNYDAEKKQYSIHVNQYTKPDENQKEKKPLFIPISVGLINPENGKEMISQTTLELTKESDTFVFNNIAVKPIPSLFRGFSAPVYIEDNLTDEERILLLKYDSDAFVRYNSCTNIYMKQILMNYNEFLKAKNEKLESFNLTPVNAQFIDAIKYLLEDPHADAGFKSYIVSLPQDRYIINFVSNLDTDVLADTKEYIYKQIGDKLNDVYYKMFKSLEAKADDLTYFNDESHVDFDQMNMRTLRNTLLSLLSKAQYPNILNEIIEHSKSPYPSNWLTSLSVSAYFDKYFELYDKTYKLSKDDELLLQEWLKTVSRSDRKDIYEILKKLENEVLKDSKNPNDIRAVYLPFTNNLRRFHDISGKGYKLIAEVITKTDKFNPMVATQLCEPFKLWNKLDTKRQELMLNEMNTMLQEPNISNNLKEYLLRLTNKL
ASSAY_DETAILS: malaria alanyl aminopeptidase activity blockers – biochemical, fluorogenic H-Leu-NHMec substrate, 1536-well (AID 1445);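 further: plate controls were DMSO full reaction for no effect and no enzyme background for full effect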
CONDITIONS: recombinant M1AAP, H-Leu-NHMec fluorogenic kinetic assay; at 30 µM, stronger effect = higher value unless noted
In all, about 220,000 compounds went through this assay and about 910 (0.41%) were called active. The list comes from a sample in which actives are over-represented; it also holds close analogues and randomly drawn compounds. Measured potencies and affinities stand elsewhere.
Number in %, nothing else.

COMPOUND	SUBJECT_OF_TEST	MEASUREMENT_UNIT	inhibition
CN1CCN(Cc2nc3ccccc3c(=O)n2Cc2nc(-c3ccc([N+](=O)[O-])cc3)cs2)CC1	Aminopeptidase N (Plasmodium falciparum (isolate 3D7)) (UniProt O96935)	%	11.9
COc1ccc(CC(=O)n2[nH]c(=O)cc(C)c2=O)cc1OC	Aminopeptidase N (Plasmodium falciparum (isolate 3D7)) (UniProt O96935)	%	8.27

Consider CCc1cc2c3c(c(=O)oc2cc1O)CCCC3 . Its measured inhibition is 22.5

Consider COc1ccccc1N1C(=O)c2ccc(C(=O)Nc3nccs3)cc2C1=O . Its measured inhibition is 7.44

Consider Cc1ccc(Cl)cc1NC(=O)COC(=O)C1CC1 . Its measured inhibition is -9.09

Consider CCOC(=O)CC1C(=O)NCCN1C(=O)c1cc2c(=O)n3ccccc3nc2s1 (stereo not drawn) . Its measured inhibition is -1.82

Consider CCCC(=O)N(Cc1cc2cccc(C)c2[nH]c1=O)c1ccccc1OC . Its measured inhibition is 0.65

Consider Nc1nnc(CSc2ccc(Cl)cc2)s1 . Its measured inhibition is -0.69

Consider CS(=O)(=O)N1CCN(c2ccc(NC(=S)NC(=O)c3ccccc3[N+](=O)[O-])cc2)CC1 . Its measured inhibition is 2.8

Consider CCn1c(CCNC(=O)c2ccc(Cl)c(Cl)c2)nnc1SCCOc1ccc(OC)cc1 . Its measured inhibition is 1.21

* * *

SUBJECT_OF_TEST: Aminopeptidase N (Plasmodium falciparum (isolate 3D7)) (UniProt O96935)
ASSAY_DETAILS: malaria alanyl aminopeptidase activity blockers – biochemical, fluorogenic H-Leu-NHMec substrate, 1536-well (AID 1445);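 further: plate controls were DMSO full reaction for no effect and no enzyme background for full effect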
CONDITIONS: recombinant M1AAP, H-Leu-NHMec fluorogenic kinetic assay; at 30 µM
The campaign covered roughly 220,000 compounds. About 910 (0.41%) were called active.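 The calls were made as follows: active = primary inhibition above the hit cutoff, then over 50% inhibition at one or more dose response concentrations (cut at about 23% in these data, passing the limit was not always enough); inconclusive = conflicting primary data, or primary hits not chosen for dose response; inactive = low primary inhibition, or under 50% at every dose.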 This is one part of a sample in which actives are shown more often than they occur. Results with a measured potency or affinity are listed apart.
Give your call using only these classes: 1 = active, 0 = inactive

Qu. What did this assay record as the result for COc1ccccc1N1CCN(C(=O)CSc2ccccc2)CC1 ?
Ans. 0

Qu. What did this assay record as the result for COc1ccc(C=O)cc1CSc1nnc(COc2cccc3cccnc23)o1 ?
Ans. 0

* * *

SUBJECT_OF_TEST: Aminopeptidase N (Plasmodium falciparum (isolate 3D7)) (UniProt O96935)
ASSAY_DETAILS: malaria alanyl aminopeptidase activity blockers – biochemical, fluorogenic H-Leu-NHMec substrate, 1536-well (AID 1445);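 further: plate controls were DMSO full reaction for no effect and no enzyme background for full effect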
CONDITIONS: recombinant M1AAP, H-Leu-NHMec fluorogenic kinetic assay; at 30 µM
Out of some 220,000 compounds screened, about 910 (0.41%) were called active.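 How the source made its calls: active means primary inhibition above the hit cutoff, then over 50% inhibition at one or more dose response concentrations (cut at about 23% in these data, passing the limit was not always enough); inconclusive means conflicting primary data, or primary hits not chosen for dose response; inactive means low primary inhibition, or under 50% at every dose.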 The sample holds actives, similar compounds and a random draw of the others, so the mix is not that of the screen. Measured potencies and affinities stand elsewhere.
Give your call using only these classes: active, inactive

COMPOUND	SUBJECT_OF_TEST	CLASS_NAME
O=C(Nc1ccccc1)Oc1ccccc1N1CCOCC1	Aminopeptidase N (Plasmodium falciparum (isolate 3D7)) (UniProt O96935)	inactive
COc1ccc(S(=O)(=O)N(NC2=NS(=O)(=O)c3ccccc32)C(=O)C(C)C)cc1	Aminopeptidase N (Plasmodium falciparum (isolate 3D7)) (UniProt O96935)	inactive
C=CCNC(=O)/C(C#N)=C\c1cc(Cl)c(O)c(OCC)c1	Aminopeptidase N (Plasmodium falciparum (isolate 3D7)) (UniProt O96935)	inactive
O=c1c2ccccc2nc(SCc2cc(F)ccc2F)n1C1CCCC1	Aminopeptidase N (Plasmodium falciparum (isolate 3D7)) (UniProt O96935)	inactive
Cc1cccc(CN2CCN(CCCc3ccccc3)CC2)c1	Aminopeptidase N (Plasmodium falciparum (isolate 3D7)) (UniProt O96935)	inactive

Qu. What did this assay record as the result for COc1ccc(/C=C(/C#N)C(=O)Nc2ccc(O)cc2)cc1C(=O)O ?
Ans. inactive

Qu. What did this assay record as the result for CC(C)(C)c1ccc(C(=O)/C=C2\NC(=O)CS2)cc1 ?
Ans. inactive

Qu. What did this assay record as the result for COCC(=O)N1CCN(c2cccc(C(F)(F)F)c2)CC1 ?
Ans. inactive

Qu. What did this assay record as the result for CCCc1nc(C)c(-c2ccc(OC)c(OC)c2)c(=O)[nH]1 ?
Ans. inactive

Qu. What did this assay record as the result for CCN1CCN(Cc2oc(CO)cc(=O)c2O)CC1 ?
Ans. inactive

Qu. What did this assay record as the result for CNNC(=O)C(=O)NNS(=O)(=O)c1ccccc1 ?
Ans. inactive

Qu. What did this assay record as the result for CN1CCN(Cc2oc(CO)cc(=O)c2O)CC1 ?
Ans. inactive

Qu. What did this assay record as the result for C=CCn1c(SCc2nc3ccccc3c(=O)[nH]2)nc2scc(C3CC3)c2c1=O ?
Ans. inactive

Qu. What did this assay record as the result for Cn1c(SCc2nc(-c3ccccc3)no2)nnc1-c1cccs1 ?
Ans. inactive
